Reference source: paper PMC3552814

Parameter: Concentration 2010, Mean ± SD. Scope: all listed entries.
- Assay comment: Serum lipid-adjusted dioxin congener concentrations in former chlorophenol workers, repeated blood sampling 2004–2005 and 2010
- Type: in vivo, human
- Assay context: serum, 56 Midland study participants, 2010 sampling
Number in pg/g lipid, nothing else.

# example entries with known answers
{"Compound": "Clc1cccc2c1Oc1c(Cl)c(Cl)c(Cl)c(Cl)c1O2 [PeCDD, pentachlorodibenzo-p-dioxin]", "Unit abbreviation": "pg/g lipid", "Concentration 2010, Mean ± SD": 14.2}
{"Compound": "Clc1c(Cl)c(Cl)c2c(c1Cl)Oc1c(Cl)c(Cl)c(Cl)c(Cl)c1O2 [OCDD, octachlorodibenzo-p-dioxin]", "Unit abbreviation": "pg/g lipid", "Concentration 2010, Mean ± SD": 1124.7}
{"Compound": "Clc1cc2c(c(Cl)c1Cl)Oc1cc(Cl)c(Cl)c(Cl)c1O2 [Congener 16HxCDD, 1,2,3,6,7,8-hexachlorodibenzo-p-dioxin]", "Unit abbreviation": "pg/g lipid", "Concentration 2010, Mean ± SD": 94.3}
{"Compound": "Clc1cc2c(c(Cl)c1Cl)Oc1c(Cl)c(Cl)c(Cl)c(Cl)c1O2 [HpCDD]", "Unit abbreviation": "pg/g lipid", "Concentration 2010, Mean ± SD": 87.1}

Recorded result, Clc1cc2c(c(Cl)c1Cl)Oc1c(cc(Cl)c(Cl)c1Cl)O2 [Congener 19HxCDD, 1,2,3,7,8,9-hexachlorodibenzo-p-dioxin] , Concentration 2010, Mean ± SD: 11.3

The value of Concentration 2010, Mean ± SD measured for the compound Clc1cc2c(cc1Cl)Oc1cc(Cl)c(Cl)cc1O2 [TCDD, 2,3,7,8-tetrachlorodibenzo-p-dioxin] turned out to be 12.9

Lab note: measured Concentration 2010, Mean ± SD of Clc1cc2c(cc1Cl)Oc1c(Cl)c(Cl)c(Cl)c(Cl)c1O2 [Congener 14HxCDD, 1,2,3,4,7,8-hexachlorodibenzo-p-dioxin] was 10.5
